- targetOfAssay: T1, recombinant LILRB1 ECD (human, UniProt Q8NHL6 24-461)
- T1 construct: also called biotinylated LILRB1 ECD
- T1 sequence (Q8NHL6 24-461 limits assumed): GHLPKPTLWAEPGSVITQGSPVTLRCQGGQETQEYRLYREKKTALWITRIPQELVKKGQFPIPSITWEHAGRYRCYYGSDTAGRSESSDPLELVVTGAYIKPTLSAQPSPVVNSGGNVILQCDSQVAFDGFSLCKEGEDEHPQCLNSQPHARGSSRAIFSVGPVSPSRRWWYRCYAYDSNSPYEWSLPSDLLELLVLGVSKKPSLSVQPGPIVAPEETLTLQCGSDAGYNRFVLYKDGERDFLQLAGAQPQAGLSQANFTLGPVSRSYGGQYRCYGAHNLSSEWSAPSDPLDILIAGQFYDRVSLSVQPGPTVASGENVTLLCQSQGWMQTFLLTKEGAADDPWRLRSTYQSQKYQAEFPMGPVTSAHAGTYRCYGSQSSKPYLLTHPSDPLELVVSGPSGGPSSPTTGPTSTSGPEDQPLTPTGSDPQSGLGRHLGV
- methodDescription: BLI, IgG on AHC sensor, ECD in solution
quantityMeasured: Kd (nM)

binder	val
A-032 (antibody, V domains shown, tested as IgG) VH: QVQLVQSGAEVKKPGSSVKVSCKASGGTFQSYAFSWVRQAPGQGLEWMGGIVPQYSTAVYAQKFQGRVTITADESTSTAYMELSSLRSEDTAVYYCAKGPPVGSSSWYTDWYFDLWGRGTLVTVSS VL: SYELTQPPSVSVSPGQTASITCSGDKLGDKYASWYQQKPGQSPVLVIYQDSKRPSGIPERFSGSNSGNTATLTISGTQAEDEADYYCLSYGAHSHGVVFGGGTKLTVL	2.2
A-048 (antibody, V domains shown, tested as IgG) VH: QVQLVQSGAEVKKPGSSVKVSCKASGYTFSKSAMSWVRQAPGQGLEWMGGIVPKFHTSVYAQKFQGRVTITADESTSTAYMELSSLRSEDTAVYYCAKGPPVGSSSWYTDWYFDLWGRGTLVTVSS VL: SYELTQPPSVSVSPGQTASITCSGDKLGDKYASWYQQKPGQSPVLVIYQDSKRPSGIPERFSGSNSGNTATLTISGTQAEDEADYYCALYGGGHTVVFGGGTKLTVL	8.7
A-031 (antibody, V domains shown, tested as IgG) VH: QVQLVQSGAEVKKPGSSVKVSCKASGYTFTKTAMSWVRQAPGQGLEWMGGIIPSYYTAVYAQKFQGRVTITADESTSTAYMELSSLRSEDTAVYYCAKGPPVGSSSWYTDWYFDLWGRGTLVTVSS VL: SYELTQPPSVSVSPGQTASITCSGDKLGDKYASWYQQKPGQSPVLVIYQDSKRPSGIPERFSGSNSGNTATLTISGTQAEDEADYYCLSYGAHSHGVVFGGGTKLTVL	0.8

FYI, the data here is from patent US20260209345A1.
